- MEASURED ON: ScSla1-D1-D2
- TEST NAME: SPOT peptide array binding signal intensity (averaged, normalized) (arbitrary units (background-subtracted, floor 0; scale differs between SH3 domains)); higher = stronger binding of the SH3 domain to the peptide
Please note: Yes applies when SPOT peptide array binding signal intensity is 40 or greater, and No applies otherwise.

BINDER	ASSIGNED LABEL
PIVPSSPAPPLPLSG	No
IVNKPLPPLPVAGSS	Yes
SKIRPTPRKPSRMAT	Yes
LKQRFFLMFPKSIIW	Yes
RRLRDKYKLPIVDAD	No
SGVRLPAPPPPPRRG	Yes
LLIRWLILMPLVGSR	No
